Source: ChEMBL document CHEMBL4382246

test system: Hs-578T; assay: Cytotoxicity against human Hs578T cells after 72 hrs by MTT assay; format: functional, cell-based
Quick rule for you: IC50 under 50 µM gets TRUE, anything else gets FALSE.

Reference set, count: 5
COc1ccc2c(NC(=O)c3cc(OC)c(OC)c(OC)c3)c(C(=O)c3ccccc3)[nH]c2c1 | FALSE
COc1cc(C(=O)Nc2c(C(=O)c3ccc(C)cc3)[nH]c3cc(C)ccc23)cc(OC)c1OC | TRUE
COc1cc(C(=O)Nc2c(C(=O)c3ccccc3)[nH]c3cc(Cl)ccc23)cc(OC)c1OC | FALSE
COc1cc(C(=O)Nc2c(C(=O)c3ccc4ccccc4c3)[nH]c3cc(C)ccc23)cc(OC)c1OC | FALSE
COc1ccc(C(=O)c2[nH]c3ccccc3c2NC(=O)c2cc(OC)c(OC)c(OC)c2)cc1 | FALSE

Inquiry: Please let me know if COc1cc(C(=O)Nc2c(C(=O)c3ccc(Br)cc3)[nH]c3ccccc23)cc(OC)c1OC shows IC50 below 50 µM.
Reply text: TRUE

Inquiry: Please let me know if COc1cc(C(=O)Nc2c(C(=O)c3ccco3)[nH]c3cc(Cl)ccc23)cc(OC)c1OC shows IC50 below 50 µM.
Reply text: FALSE

Inquiry: Please let me know if COc1cc(C(=O)Nc2c(C(=O)c3ccc(-c4ccccc4)cc3)[nH]c3ccccc23)cc(OC)c1OC shows IC50 below 50 µM.
Reply text: TRUE

Inquiry: Please let me know if COc1ccc(C(=O)c2[nH]c3cc(Cl)ccc3c2NC(=O)c2cc(OC)c(OC)c(OC)c2)cc1O shows IC50 below 50 µM.
Reply text: TRUE

Inquiry: Please let me know if COc1cc(C(=O)Nc2c(C(=O)c3ccc(Cl)cc3)[nH]c3cc(C)ccc23)cc(OC)c1OC shows IC50 below 50 µM.
Reply text: TRUE

Inquiry: Please let me know if COc1cc(C(=O)Nc2c(C(=O)c3ccc(F)cc3)[nH]c3cc(C)ccc23)cc(OC)c1OC shows IC50 below 50 µM.
Reply text: TRUE

Inquiry: Please let me know if COc1cc(C(=O)Nc2c(C(=O)c3ccc(F)c(F)c3)[nH]c3cc(Cl)ccc23)cc(OC)c1OC shows IC50 below 50 µM.
Reply text: FALSE

Inquiry: Please let me know if COc1cc(C(=O)Nc2c(C(=O)c3ccc(F)cc3)[nH]c3ccccc23)cc(OC)c1OC shows IC50 below 50 µM.
Reply text: FALSE

Inquiry: Please let me know if COc1cc(C(=O)Nc2c(C(=O)c3cccc(Br)c3)[nH]c3cc(Cl)ccc23)cc(OC)c1OC shows IC50 below 50 µM.
Reply text: TRUE

Inquiry: Please let me know if COc1ccc2c(NC(=O)c3cc(OC)c(OC)c(OC)c3)c(C(=O)c3ccc(C)cc3)[nH]c2c1 shows IC50 below 50 µM.
Reply text: FALSE
